Quick reference: ED50 of the listed items.
Test system: compound 48/80-induced lethality
Assay: Protection of rats from compound 48/80-induced lethality
Format: in vivo, rats of an inbred Wistar strain
Conditions: Rattus norvegicus, 4 h, read-out: Compound 48/80 lethality test in rats ED50, s.c. or p.o. 1 h before compound 48/80 0.5 mg/kg i.v.; protection of 50% of animals, survival after 4 hours
Description: Protection of rats from compound 48/80-induced lethality The protection from compound 48/80-induced lethal circulatory collapse appears to be a simple way of evaluating quantitatively the antihistaminic activity of test compounds. Male rats of an inbred Wistar strain, weighing 240-260 g were used in the experiment. After overnight starvation the rats were transferred to conditioned laboratories (temp.=21±1° C., relative humidity=65+5%). […]
outcome measure: ED50

| compound | val |
| --- | --- |
| Nc1ccccc1C(=O)NCCN1CCC(Cc2nc3ccccc3n2Cc2ccc(F)cc2)CC1 | 0.02 mg/kg |
| Fc1ccc(Cn2c(CC3CCN(CCNc4ncccn4)CC3)nc3ccncc32)cc1 | 0.02 mg/kg |
| c1cnc(NCCN2CCC(Cc3nc4ccccc4n3Cc3ccco3)CC2)nc1 | 0.005 mg/kg |
| CCOCCN1CCC(Cc2nc3ccccc3n2Cc2ccc(F)cc2)CC1 | 0.02 mg/kg |
| N#CCN1CCC(Cc2nc3cccnc3n2Cc2ccc(F)cc2)CC1 | 0.08 mg/kg |
| O=C(CCCN1CCC(Cc2nc3cccnc3n2Cc2ccc(F)cc2)CC1)c1ccc(F)cc1 | 0.08 mg/kg |
| COc1ccc(CCN2CCC(Cc3nc4ccccc4n3Cc3ccoc3)CC2)cc1 | 0.01 mg/kg |
| Cc1cc(Cl)nc(NCCN2CCC(Cc3nc4ccccc4n3Cc3ccc(F)cc3)CC2)n1 | 0.08 mg/kg |
| C=CCN1CCC(Cc2nc3cccnc3n2Cc2ccc(F)cc2)CC1 | 0.02 mg/kg |
| O=c1[nH]c2ccccc2c(=O)n1CCCCN1CCC(Cc2nc3ccccc3n2Cc2ccco2)CC1 | 0.31 mg/kg |
| O=c1cc[nH]c(=O)n1CCN1CCC(Cc2nc3ccccc3n2Cc2ccc(F)cc2)CC1 | 0.02 mg/kg |
| Oc1ccc(CCN2CCC(Cc3nc4ccccc4n3Cc3ccc(F)cc3)CC2)cc1 | 0.08 mg/kg |
| CC1(C)Nc2ccccc2C(=O)N1CCN1CCC(Cc2nc3cccnc3n2Cc2ccccn2)CC1 | 0.04 mg/kg |
| C[C@@H]1CN(CCNc2ncccn2)CC[C@@H]1Oc1nc2ccccc2n1Cc1ccc(F)cc1 (relative stereo) | 0.08 mg/kg |
| Cc1nc2n(c(=O)c1CCN1CCC(Cc3nc4ccccc4n3Cc3ccco3)CC1)CCCS2 | 0.04 mg/kg |
| Cc1nc2scc(C)n2c(=O)c1CCN1CCC(Cc2nc3ccccc3n2Cc2ccco2)CC1 | 0.04 mg/kg |
| S=C=NCCN1CCC(Cc2nc3cccnc3n2Cc2cccs2)CC1 | 0.04 mg/kg |
